# reported SPOT peptide array binding signal intensity; entries follow
Target: AgBzz1-D1
Experiment: SPOT peptide array binding signal intensity (averaged, normalized) (arbitrary units (background-subtracted, floor 0; scale differs between SH3 domains)); higher = stronger binding of the SH3 domain to the peptide
Output spec: single numeric token, no unit.

[
  {
    "BINDER": "NLKKRPPTAPQRKIS",
    "OBS_VALUE": 277
  },
  {
    "BINDER": "SNRRPVPRRPSQPLN",
    "OBS_VALUE": 157
  },
  {
    "BINDER": "DLFKPLPEPPTELGR",
    "OBS_VALUE": 22
  },
  {
    "BINDER": "GATNNAPTLPKRKNP",
    "OBS_VALUE": 60.2
  },
  {
    "BINDER": "NLPKRKPPKLQGPFS",
    "OBS_VALUE": 148
  },
  {
    "BINDER": "ALRRRLPVTRSKINW",
    "OBS_VALUE": 43
  }
]

Consider the additional binder presented here.
Given the binder `PLQSKIPMLPSRRTM` , what is its reported SPOT peptide array binding signal intensity?
48
